# Target System: Peptidyl-prolyl cis-trans isomerase NIMA-interacting 1 (Homo sapiens, UniProt Q13526, S16A/Y23A)
# Sequence (Q13526 whole entry S16A/Y23A, the tested form may be a part): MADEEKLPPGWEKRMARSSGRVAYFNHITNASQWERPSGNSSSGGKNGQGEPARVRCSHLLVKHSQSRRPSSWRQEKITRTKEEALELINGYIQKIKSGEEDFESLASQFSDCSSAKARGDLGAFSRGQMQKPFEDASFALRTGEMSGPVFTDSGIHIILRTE
# Assay Text: Binding affinity to N-terminal MBP fused and Texas-red-labeled full-length human Pin1 S16A/Y23A mutant expressed in Escherichia coli assessed as increase in fluorescence anisotropy by spectrofluorimetry
# Condition Info: read-out: Kd
Entries annotated with measured Kd
Numbers only here, please. The scale is nM.

Illustrative cases are given below, each with its answer.
C[C@@H]1NC(=O)[C@H](CCCNC(=N)N)NC(=O)[C@H](Cc2ccc3ccccc3c2)NC(=O)[C@H]2CCCCN2C(=O)[C@@H]([C@H](C)O)NC(=O)[C@H](Cc2ccc(F)cc2)NC(=O)[C@@H](Cc2ccccc2)NC(=O)c2cc3cc(c2)C(=O)NC[C@@H](C(=O)N[C@@H](CCCCN)C(=O)O)NC(=O)[C@H](CCCNC(=N)N)NC(=O)[C@H](CCCNC(=N)N)NC(=O)[C@H](CCCNC(=N)N)NC(=O)[C@H](CCCNC(=N)N)NC(=O)[C@H](Cc2ccc4ccccc4c2)NC(=O)[C@H](Cc2ccccc2)NC(=O)[C@H](CNC3=O)NC1=O: 900
C[C@H]1NC(=O)[C@H](Cc2ccc(O)cc2)NC(=O)[C@H](CCCNC(=N)N)NC(=O)[C@H](Cc2ccc3ccccc3c2)NC(=O)[C@H]2CCCCN2C(=O)[C@@H](CC(=O)O)NC(=O)CN(C)C(=O)[C@@H]2CCCN2C(=O)c2cc3cc(c2)C(=O)NC[C@H](NC1=O)C(=O)N[C@@H](Cc1ccccc1)C(=O)N[C@@H](Cc1ccc2ccccc2c1)C(=O)N[C@@H](CCCNC(=N)N)C(=O)N[C@@H](CCCNC(=N)N)C(=O)N[C@@H](CCCNC(=N)N)C(=O)N[C@@H](CCCNC(=N)N)C(=O)N[C@H](C(=O)N[C@@H](CCCCN)C(=O)O)CNC3=O: 2170
C[C@@H]1NC(=O)[C@H](CCCNC(=N)N)NC(=O)[C@H](Cc2ccc3ccccc3c2)NC(=O)[C@H]2CCCCN2C(=O)[C@@H](CC(=O)O)NC(=O)CN(C)C(=O)[C@@H]2CCCN2C(=O)c2cc3cc(c2)C(=O)NC[C@H](NC(=O)[C@@H](C)NC(=O)[C@@H](C)NC1=O)C(=O)N[C@@H](Cc1ccccc1)C(=O)N[C@@H](Cc1ccc2ccccc2c1)C(=O)N[C@@H](CCCNC(=N)N)C(=O)N[C@@H](CCCNC(=N)N)C(=O)N[C@@H](CCCNC(=N)N)C(=O)N[C@@H](CCCNC(=N)N)C(=O)N[C@H](C(=O)N[C@@H](CCCCN)C(=O)O)CNC3=O: 2490
C[C@@H]1NC(=O)[C@H](CCCNC(=N)N)NC(=O)[C@H](Cc2ccc3ccccc3c2)NC(=O)[C@@H]2CCCCN2C(=O)[C@@H]([C@H](C)O)NC(=O)CN(C)C(=O)[C@@H](C)NC(=O)c2cc3cc(c2)C(=O)NC[C@H](NC(=O)[C@@H](C)NC1=O)C(=O)N[C@@H](Cc1ccccc1)C(=O)N[C@@H](Cc1ccc2ccccc2c1)C(=O)N[C@@H](CCCNC(=N)N)C(=O)N[C@@H](CCCNC(=N)N)C(=O)N[C@@H](CCCNC(=N)N)C(=O)N[C@@H](CCCNC(=N)N)C(=O)N[C@H](C(=O)N[C@@H](CCCCN)C(=O)O)CNC3=O: 620
C[C@@H]1NC(=O)[C@H](CCCNC(=N)N)NC(=O)[C@H](Cc2ccc3ccccc3c2)NC(=O)[C@H]2CCCCN2C(=O)[C@@H]([C@H](C)O)NC(=O)[C@H](Cc2cnc[nH]2)NC(=O)[C@@H](Cc2ccccc2)NC(=O)c2cc3cc(c2)C(=O)NC[C@H](NC(=O)[C@@H](C)NC1=O)C(=O)N[C@@H](Cc1ccccc1)C(=O)N[C@@H](Cc1ccc2ccccc2c1)C(=O)N[C@@H](CCCNC(=N)N)C(=O)N[C@@H](CCCNC(=N)N)C(=O)N[C@@H](CCCNC(=N)N)C(=O)N[C@@H](CCCNC(=N)N)C(=O)N[C@H](C(=O)N[C@@H](CCCCN)C(=O)O)CNC3=O: 1680

Q: # input compound: C[C@@H]1NC(=O)[C@H](CCCNC(=N)N)NC(=O)[C@H](Cc2ccc3ccccc3c2)NC(=O)[C@H]2CCCCN2C(=O)[C@@H](CC(=O)O)NC(=O)CN(C)C(=O)[C@@H]2CCCN2C(=O)c2cc3cc(c2)C(=O)NC[C@H](NC(=O)[C@@H](C)NC1=O)C(=O)N[C@@H](Cc1ccccc1)C(=O)N[C@@H](Cc1ccc2ccccc2c1)C(=O)N[C@@H](CCCNC(=N)N)C(=O)N[C@@H](CCCNC(=N)N)C(=O)N[C@@H](CCCNC(=N)N)C(=O)N[C@@H](CCCNC(=N)N)C(=O)N[C@H](C(=O)N[C@@H](CCCCN)C(=O)O)CNC3=O (stereo in doubt; 3) ; wanted: its Kd
Ans: 870

Q: # input compound: `CC(C)[C@@H]1NC(=O)[C@H](CCCNC(=N)N)NC(=O)[C@H](Cc2ccc3ccccc3c2)NC(=O)[C@H]2CCCCN2C(=O)[C@@H](CC(=O)O)NC(=O)CN(C)C(=O)[C@@H]2CCCN2C(=O)c2cc3cc(c2)C(=O)NC[C@H](NC(=O)[C@@H](C)NC1=O)C(=O)N[C@@H](Cc1ccccc1)C(=O)N[C@@H](Cc1ccc2ccccc2c1)C(=O)N[C@@H](CCCNC(=N)N)C(=O)N[C@@H](CCCNC(=N)N)C(=O)N[C@@H](CCCNC(=N)N)C(=O)N[C@@H](CCCNC(=N)N)C(=O)N[C@H](C(=O)N[C@@H](CCCCN)C(=O)O)CNC3=O` ; wanted: its Kd
Ans: 1750
